Recorded viability, T/C by entry
Tested on: 817829-284-R-J1-PDC complex spheroids, viability
assay.text: Anticancer human tumor 817829-284-R-J1-PDC patient-derived colon adenocarcinoma cell line growth inhibition [GQUAD]
study.conditions: second compound 1 µM; first compound 1 µM; stronger effect = lower value

molecule | viability, T/C
C#Cc1c(F)ccc2cc(O)cc(-c3ncc4c(N5CC6CCC(C5)N6)nc(OCC56CCCN5CC(F)C6)nc4c3F)c12 (stereo not drawn) + Cc1cnc(CNC(=O)c2c(=O)c3ccc(N4CCCN(C)CC4)nc3n3c2sc2ccccc23)cn1 | 21.8%
CC1COCCN1c1cc(C2(S(C)(=N)=O)CC2)nc(-c2ccnc3[nH]ccc23)n1 (stereo not drawn) + CN(C)c1ccc(Nc2c3ccc(NC(=O)CCN4CCCC4)cc3nc3cc(NC(=O)CCN4CCCC4)ccc23)cc1 | 24.1%
O=C(c1cc(Cc2n[nH]c(=O)c3ccccc23)ccc1F)N1CCN(C(=O)C2CC2)CC1 + Cc1cnc(CNC(=O)c2c(=O)c3ccc(N4CCCN(C)CC4)nc3n3c2sc2ccccc23)cn1 | 22.8%

---

Test system: 817829-284-R-J1-PDC complex spheroids, viability
assay.text: Anticancer human tumor 817829-284-R-J1-PDC cell line growth inhibition [GQUAD];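 also: spheroids exposed to agents for 7 days before readout; percent viability relative to DMSO vehicle control taken as 100%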
study.conditions: second compound 1 µM; first compound 0.316 µM; stronger effect = lower value
attribute.measured: viability, T/C (%)

compound | attribute.measured | observed.measurement
COc1ncnc(C2CC2)c1-c1ncc2cnn(Cc3ccc(-c4nc(C(F)(F)F)cn4C(C)C)cc3)c2n1 + Cc1[nH]c2ccc(F)cc2c1-c1nc2c3cccnc3c3ncccc3c2[nH]1 | viability, T/C | 117
CC[C@@]1(O)C(=O)OCc2c1cc1n(c2=O)Cc2cc3c(CN(C)C)c(O)ccc3nc2-1 + CN(C)c1ccc(Nc2c3ccc(NC(=O)CCN4CCCC4)cc3nc3cc(NC(=O)CCN4CCCC4)ccc23)cc1 | viability, T/C | 34
CC[C@@]1(O)C(=O)OCc2c1cc1n(c2=O)Cc2cc3c(CN(C)C)c(O)ccc3nc2-1 + Cc1[nH]c2ccc(F)cc2c1-c1nc2c3cccnc3c3ncccc3c2[nH]1 | viability, T/C | 29.1

---

Test system: 817829-284-R-J1-PDC complex spheroids, viability
assay.text: Anticancer human tumor 817829-284-R-J1-PDC cell line growth inhibition [GQUAD]; active = viability on the fitted dose curve at most 10% of control; inactive = the rest;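 also: spheroids exposed to agents for 7 days before readout; percent viability relative to DMSO vehicle control taken as 100%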
study.conditions: second compound 0.1 µM; first compound 10 µM
Outcome codes: active, inactive

compound | tested.target | cat
COc1cc(C2c3cc4c(cc3C(OC3OC5COC(C)OC5C(O)C3O)C3COC(=O)C23)OCO4)cc(OC)c1O (stereo not drawn) + Cc1cnc(CNC(=O)c2c(=O)c3ccc(N4CCCN(C)CC4)nc3n3c2sc2ccccc23)cn1 | 817829-284-R-J1-PDC complex spheroids, viability | inactive
O=C(NO)c1cnc(N2CCN(S(=O)(=O)c3ccc4ccccc4c3)CC2)nc1 + CN(C)c1ccc(Nc2c3ccc(NC(=O)CCN4CCCC4)cc3nc3cc(NC(=O)CCN4CCCC4)ccc23)cc1 | 817829-284-R-J1-PDC complex spheroids, viability | active
CC1COCCN1c1cc(C2(S(C)(=N)=O)CC2)nc(-c2ccnc3[nH]ccc23)n1 (stereo not drawn) + CN(C)c1ccc(Nc2c3ccc(NC(=O)CCN4CCCC4)cc3nc3cc(NC(=O)CCN4CCCC4)ccc23)cc1 | 817829-284-R-J1-PDC complex spheroids, viability | active
